SYSTEM NAME: recombinant human GALK1 (Homo sapiens)
Sequence (P51570 whole entry): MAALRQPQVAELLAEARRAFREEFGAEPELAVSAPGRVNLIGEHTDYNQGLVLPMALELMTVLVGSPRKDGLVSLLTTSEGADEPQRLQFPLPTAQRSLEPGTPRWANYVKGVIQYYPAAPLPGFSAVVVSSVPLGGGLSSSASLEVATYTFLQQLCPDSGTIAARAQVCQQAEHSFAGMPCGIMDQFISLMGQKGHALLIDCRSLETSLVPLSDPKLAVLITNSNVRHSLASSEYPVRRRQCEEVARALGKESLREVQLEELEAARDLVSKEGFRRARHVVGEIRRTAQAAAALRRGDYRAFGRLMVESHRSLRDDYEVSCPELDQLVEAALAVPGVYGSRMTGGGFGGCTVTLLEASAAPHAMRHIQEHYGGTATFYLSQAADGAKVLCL
ASSAY PROCEDURE: hGALK1 biochemical activity assay (Kinase-Glo Plus, ATP depletion)
MEASUREMENT CONDITIONS: recombinant human GALK1, Kinase-Glo Plus ATP depletion; bracketed figure in the cell, e.g. (−1.2), is not defined in the text shown; read-out: hGALK
pIC50: −log10 of the molar value.
In this section, each of the compounds is paired with its reported pIC50.
EXPERIMENTAL READOUT: pIC50

> print(dat)
                                   compound  experimental.readout  result.value
1  CC1=C(C(=O)Nc2nncs2)C(c2nn(C)cc2Br)N=C(Nc2nc3ccccc3o2)N1 (stereo not drawn)                 pIC50          5.46
2  CC1=C(C(=O)Nc2nncs2)C(c2ncccc2Br)N=C(Nc2nc3ccccc3o2)N1 (stereo not drawn)                 pIC50          5.31
3  CC1=C(C(=O)Nc2nncs2)C(c2ccncc2Br)N=C(Nc2nc3ccccc3o2)N1 (stereo not drawn)                 pIC50          5.46
4  CC1=C(C(=O)Nc2nncs2)C(c2cc(Cl)ccc2Cl)N=C(Nc2nc3ccccc3o2)N1 (stereo not drawn)                 pIC50          5.21
5  O=C1CC(C(=O)O)CC2=C1C(c1ccccc1Cl)N=C(Nc1nc3ccccc3o1)N2 (stereo not drawn)                 pIC50          5.41
6  CC1=C(C(=O)Nc2nncs2)C(c2cccnc2Br)N=C(Nc2nc3ccccc3o2)N1 (stereo not drawn)                 pIC50          4.86
7  COc1ccc(C2N=C(Nc3nc4ccccc4o3)NC(C)=C2C(=O)Nc2nncs2)c(Cl)c1 (stereo not drawn)                 pIC50          5.41
8  CC1=C(C(=O)Nc2nncs2)C(c2ccccc2C(F)(F)F)N=C(Nc2nc3ccccc3o2)N1 (stereo not drawn)                 pIC50          5.16
9  CNC(=O)C1CC(=O)C2=C(C1)NC(Nc1nc3ccccc3o1)=NC2c1ccccc1Cl (stereo not drawn)                 pIC50          5.21
